- Test system: Luc expression
- protocolNotes: Luc expression in CD-1 mice (AUC relative to MC3)
- Type: in vivo
- settings: Table 7c
Would you kindly list AUC (p/s*h) for each of these molecules?
The reply should read as a number followed by its unit.

# value lookup — system Luc expression, readout AUC (p/s*h), item CCCCCCCCCN(CCCCCCCCC)CCN(CCCCCCCCC)CC(=O)N1CCN(C(=O)CN(CCCCCCCCC)CCCCCCC(=O)OCC)CC1
9.22E+09 p/s*h

# value lookup — system Luc expression, readout AUC (p/s*h), item CCCCCCCCCN(CCCCCCC(=O)OCC)CCC1CCN(C(=O)CN(CCCCCCCCC)CCN(CCCCCCCCC)CCCCCCCCC)CC1
1.38E+11 p/s*h

# value lookup — system Luc expression, readout AUC (p/s*h), item CCCCCCCCCN(CCCCCCCCC)CCN(CCCCCCCCC)CC(=O)N1CCN(C(=O)CN(CCCCCCCCC)CCCCC(=O)OCCCC)CC1
2.00E+10 p/s*h

# value lookup — system Luc expression, readout AUC (p/s*h), item CCCCCCCCCN(CCCC(=O)OCCCCC)CCN(CCCCCCCCC)CC(=O)N1CCN(C(=O)CN(CCCCCCCCC)CCCC(=O)OCCCCC)CC1
1.77E+11 p/s*h

# value lookup — system Luc expression, readout AUC (p/s*h), item CCCCCCCCCN(CCCCCCCC(=O)OC)CCC1CCN(C(=O)CN(CCCCCCCCC)CCN(CCCCCCCCC)CCCCCCCCC)CC1
1.21E+11 p/s*h

# value lookup — system Luc expression, readout AUC (p/s*h), item CCCCCCCCCN(CCCCC(=O)OCCCC)CCC1CCN(C(=O)CN(CCCCCCCCC)CCN(CCCCCCCCC)CCCCCCCCC)CC1
2.84E+11 p/s*h

###

- Test system: modified luciferase (Luc) expression
- protocolNotes: Expression upon intramuscular administration of Luc mRNA and H10 mRNA formulations
- Assay type: in vivo
- settings: 6 hours after intramuscular administration, 0.001 mpk, Dose 1
valueKind: Total flux (p/s) 0.001 mpk Dose 1
Numeric answer only, unit p/s assumed.

Total flux (p/s) 0.001 mpk Dose 1 lookup needed for CCCCCCCCCN(CCCCCCCCC)CCN(CCO)CCCCCC(=O)OCCCCC , thanks.
8.57E+05

Total flux (p/s) 0.001 mpk Dose 1 lookup needed for CCCCCCCCCCCCN(CCO)CCN(CCCCCC(=O)OCCCCC)CCCCCC(=O)OCCCCC , thanks.
1.04E+06

Total flux (p/s) 0.001 mpk Dose 1 lookup needed for CCCCCCCCCCCCN(CCCCCCCCCCCC)CCN(CCCCCCCCCCCC)CC(=O)O , thanks.
3.50E+05

Total flux (p/s) 0.001 mpk Dose 1 lookup needed for CCCCCC=CCC=CCCCCCCCCC(CCCCCCCCC=CCC=CCCCCC)OC(=O)CCCN(C)C (stereo not shown) [MC3, reference compound] , thanks.
1.23E+06

###

Would you kindly list IP-10 for each of these molecules?
- Test system: IP-10
- protocolNotes: Cytokine production induced by sample formulations: IP-10
- Type: in vivo
- settings: Table 19-4; mice, i.v., 0.5 mpk, 6 hours; in pg/mL (unit assumed)
// no unit, no text: just the number

IP-10 lookup needed for CCCCCCCCCN(CCCCCCCCC)CCN1CCNCC1 , thanks.
51.1

IP-10 lookup needed for CCCCCCCCCCCCN(CCCCCCCCCCCC)CCN1CCN(C)CC1 , thanks.
430.9

IP-10 lookup needed for CCCCC/C=C\C/C=C\CCCCCCCCN(CCCCCCCC/C=C\C/C=C\CCCCC)CCN1CCN(CCCCCCCCCCCC)CC1 , thanks.
433

IP-10 lookup needed for CCCCC/C=C\C/C=C\CCCCCCCCN(CCCCCCCC/C=C\C/C=C\CCCCC)CCN1CCNCC1 , thanks.
177.5

IP-10 lookup needed for CCCCCC=CCC=CCCCCCCCCC(CCCCCCCCC=CCC=CCCCCC)OC(=O)CCCN(C)C (centres unmarked) [MC3, reference compound] , thanks.
323.9
